Target: gastrointestinal H^+ K^+ ATPase (Sus scrofa, UniProt P19156)
Construct: Lyophilized gastric vesicles were prepared from pig fundic mucosa
Sequence (P19156 2-1034 limits assumed): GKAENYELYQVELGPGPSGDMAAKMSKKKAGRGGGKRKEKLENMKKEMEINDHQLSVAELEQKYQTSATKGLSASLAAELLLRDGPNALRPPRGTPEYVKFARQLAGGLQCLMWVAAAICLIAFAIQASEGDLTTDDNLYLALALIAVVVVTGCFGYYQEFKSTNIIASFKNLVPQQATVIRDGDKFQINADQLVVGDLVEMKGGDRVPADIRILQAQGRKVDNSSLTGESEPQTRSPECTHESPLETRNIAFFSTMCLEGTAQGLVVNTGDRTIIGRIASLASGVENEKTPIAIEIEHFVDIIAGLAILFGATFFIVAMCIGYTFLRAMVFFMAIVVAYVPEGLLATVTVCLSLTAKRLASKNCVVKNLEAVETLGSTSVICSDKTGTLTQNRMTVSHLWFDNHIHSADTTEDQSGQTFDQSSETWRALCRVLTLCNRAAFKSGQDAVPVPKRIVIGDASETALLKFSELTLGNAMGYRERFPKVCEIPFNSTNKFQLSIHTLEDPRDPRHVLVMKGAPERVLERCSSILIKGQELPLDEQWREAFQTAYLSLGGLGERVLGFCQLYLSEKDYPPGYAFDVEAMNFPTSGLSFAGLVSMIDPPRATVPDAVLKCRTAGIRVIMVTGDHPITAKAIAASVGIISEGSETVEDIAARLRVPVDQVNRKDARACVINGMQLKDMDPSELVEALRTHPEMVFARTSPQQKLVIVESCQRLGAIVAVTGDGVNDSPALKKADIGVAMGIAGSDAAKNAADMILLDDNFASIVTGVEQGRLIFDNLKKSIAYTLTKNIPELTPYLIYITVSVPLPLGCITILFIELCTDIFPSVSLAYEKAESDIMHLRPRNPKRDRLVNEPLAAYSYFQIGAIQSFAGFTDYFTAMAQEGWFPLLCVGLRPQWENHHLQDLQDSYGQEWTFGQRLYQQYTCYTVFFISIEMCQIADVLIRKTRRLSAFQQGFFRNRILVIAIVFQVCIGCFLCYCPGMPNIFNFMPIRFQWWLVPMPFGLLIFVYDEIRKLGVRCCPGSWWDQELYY
Sequence (P18434 whole entry partner): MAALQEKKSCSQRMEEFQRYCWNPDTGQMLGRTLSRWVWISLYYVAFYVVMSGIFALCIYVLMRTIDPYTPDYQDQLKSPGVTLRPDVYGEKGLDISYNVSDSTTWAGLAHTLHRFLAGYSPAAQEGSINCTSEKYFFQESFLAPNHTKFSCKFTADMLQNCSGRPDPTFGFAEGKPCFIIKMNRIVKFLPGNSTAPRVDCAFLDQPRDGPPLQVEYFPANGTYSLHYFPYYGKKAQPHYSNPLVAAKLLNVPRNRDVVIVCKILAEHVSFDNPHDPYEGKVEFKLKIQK
Experiment: K+-stimulated ATPase activity in lyophilized gastric vesicles (H/K-ATPase)
Conditions: K+-stimulated ATPase activity, lyophilized pig gastric vesicles, 37° C., pH 7.0, 30 minutes
PROPERTY LABEL: IC50 (nM)

Example cases with answers are listed next.
* CCCC(=O)c1cnc2c(CO)cccc2c1Nc1ccc(F)cc1C | 2200
* Cc1cc(F)ccc1Nc1c(C(=O)C(C)C)cnc2c(CO)cccc12 | 2100

A = CCCC(=O)c1cnc2c(CO)cccc2c1Nc1ccccc1C
B = CCCC(=O)c1cnc2c(OCCO)cccc2c1Nc1ccc(F)cc1C
C = CCCC(=O)c1cnc2ccc(CO)cc2c1Nc1ccccc1C
Task: Order these by IC50, descending, and give the full ranking. Answer with the labels in sequence, matching the requested order.
Result: C, B, A

###

Target: gastrointestinal H^+ K^+ ATPase (Sus scrofa, UniProt P19156)
Construct: Lyophilized gastric vesicles were prepared from pig fundic mucosa
Experiment: K+-stimulated ATPase activity in lyophilized gastric vesicles (H/K-ATPase)
Settings: K+-stimulated ATPase activity, lyophilized pig gastric vesicles, 37° C., pH 7.0, 30 minutes
Structures can show the parent of a compound that is named as a salt.
PROPERTY LABEL: IC50 (nM)

Example cases with answers are listed next.
* CCCC(=O)c1cnc2c(OCCOCCO)cccc2c1Nc1ccccc1C | 2100
* CCCC(=O)c1cnc2c(C(C)O)cccc2c1Nc1ccccc1C (stereo not shown) | 360
* CCCC(=O)c1cnc2c(OCCOCCOCCO)cccc2c1Nc1ccccc1C | 2400
* CCCC(=O)c1cnc2c(C(C)O)cccc2c1Nc1ccc(O)cc1C (stereo not shown) | 60

I = Cc1cc(O)ccc1Nc1c(C(=O)C(C)C)cnc2c(CO)cccc12 [Example 16, hydrochloride]
II = CCCC(=O)c1cnc2c(OCCOC)cccc2c1Nc1ccccc1C
III = Cc1ccccc1Nc1c(C(=O)C(C)C)cnc2c(CO)cccc12
IV = CCCC(=O)c1cnc2c(OCCOCCO)cccc2c1Nc1ccc(F)cc1C
Task: Order these by IC50, descending, and give the full ranking. Answer with the labels in sequence, matching the requested order.
Result: IV, II, III, I

P = CCCC(=O)c1cnc2c(OCCO)cccc2c1Nc1ccccc1C
Q = CCCC(=O)c1cnc2c(CO)cccc2c1Nc1ccc(O)cc1C [Example 3, hydrochloride]
Task: Field: lower IC50 | Options: P / Q Use the label to indicate which entry you chose.
Result: Q
(Q: 180 nM, P: 2400 nM)

FYI, the data here is from patent US5089504A.
